- Tested on: radiolabeled mAb-conjugates
- Assay: In vitro Label release from radiolabeled mAb-TCO-chelate conjugates incubated with Cleaving Agents (SEC)
- Study Conditions: Label release from TCO derivative 1.8 on trastuzumab, ^111In; 50% mouse plasma in PBS, 37°C, 15-24 h
Marks after values point to notes of the source that are not given here.
Below, each entry is listed alongside its reported release (%).

As a guide, the following entries are already answered.
compound="O=C(O)CCCC(=O)Nc1cccnc1-c1nnc(-c2ncccc2NC(=O)CCCC(=O)O)nn1 [Compound 2.7]" attribute_measured="release (%)" reported_measurement="55.3^a %"
compound="O=C(CCCC(=O)Nc1cnccc1-c1nnc(-c2ccncc2NC(=O)CCCC(=O)NCCOCCOCCOCCOCCOCCOCCOCCOCCOCCO)nn1)NCCOCCOCCOCCOCCOCCOCCOCCOCCOCCO [Compound 2.10]" attribute_measured="release (%)" reported_measurement="82.4, 82.4^a %"
compound="Oc1cccnc1-c1nnc(-c2ncccc2O)nn1 [Compound 2.1]" attribute_measured="release (%)" reported_measurement=77.0%

Give the measured release (%) of CC(=O)Nc1cccnc1-c1nnc(-c2ncccc2NC(C)=O)nn1 [Compound 2.4] .
54.5^a %

Please look up its release (%): O=C(O)CCCC(=O)Nc1cnccc1-c1nnc(-c2ccncc2NC(=O)CCCC(=O)O)nn1 [Compound 2.9]
67.0^a %

For O=C(CCCC(=O)Nc1cccnc1-c1nnc(-c2ncccc2NC(=O)CCCC(=O)NCCOCCOCCOCCOCCOCCOCCOCCOCCOCCO)nn1)NCCOCCOCCOCCOCCOCCOCCOCCOCCOCCO [Compound 2.8] , what is its reported release (%)?
60.6%

---

Here the recorded release (%) is given for each entry.
- Tested on: radiolabeled mAb-conjugates
- Assay: In vitro Label release from radiolabeled mAb-TCO-chelate conjugates incubated with Cleaving Agents (SEC)
- Study Conditions: Label release from TCO derivative 1.14 on CC49, ^89Zr; PBS, 37°C, 15-24 h
API: value field is a number in %; no unit string.

compound=Oc1cnccc1-c1nnc(-c2ccncc2O)nn1 reported_measurement=60.3
compound=Oc1cccnc1-c1nnc(-c2ncccc2O)nn1 reported_measurement=53.0
compound="Cc1nnc(C)nn1 [Compound 2.13, reference compound]" reported_measurement=53.6

Record O=C(CCCC(=O)Nc1cnccc1-c1nnc(-c2ccncc2NC(=O)CCCC(=O)NCCOCCOCCOCCOCCOCCOCCOCCOCCOCCO)nn1)NCCOCCOCCOCCOCCOCCOCCOCCOCCOCCO : what is its release (%) with radiolabeled mAb-conjugates?
45.2
